- measured.on: Grb2 SH2 (UniProt P62993)
- assay.comment: SH2 binding enrichment of the phosphorylated peptide, bacterial display (enrichment ratio); higher = better substrate or ligand; peptides without Tyr show the background;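 note: peptide library displayed on the E. coli surface as eCPX fusions, selected cells deep-sequenced, score is each peptide's frequency after selection divided by its frequency in the input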
endpoint.label: SH2 binding enrichment

Completed entries (count: 8):
biopolymer.sequence	assay.value
KACKHYLTKRT [ZBTB5_Y118_T121K]	1.94
HFVDEYDPTIE [KRAS_Y32]	0.786
LTRDIYKNDFF [ROS1_Y2110_A2106T_YF]	1.48
SAGSSYSISVI [PAX5_Y179_G183V]	0.856
GVPLGYPIKAP [ELN_Y206]	0.716
EFGSGYPNDPK [RNASEH2A_Y210_D205E_YF]	0.879
HFVDEYDPTME [KRAS_Y32_I36M]	0.802
CKRQFYLFKGK [RSPO4_Y112_YF]	1.28

(1) FIILIYAMKKK [SLCO1B1_Y645_YF]
(2) LQLLGYRPVYS [CHST6_Y358]
(3) RSGNCYLDIRP [FBN1_Y1535]
(4) INQGPYENHSV [ATP6V1B1_Y462_R465H]
Falling order of SH2 binding enrichment, please. Reply with the item labels sorted in the order that was asked for.
4, 1, 2, 3
